- TARGET_UNDER_TEST: CBL-B (residues 36-427) (Homo sapiens)
- Construct: Purified CBL-B (residues 36-427) and C-CBL (residues 46-435) proteins from baculovirus-infected insect cells; made in house; host or cells: baculovirus-infected insect cells
- ASSAY_PROCEDURE: Ligand Displacement Assay (LDA), HTRF competitive binding against BODIPY-labeled fluorescent tracer, CBL-B
- CONDITION_LABEL: geometric mean of the number of tests, read-out: CBL-B Ki (nM) GMean
QUANTITY_MEASURED: Ki (nM)
Enter your answer as a number in nM; do not include the unit.

Enter Ki (test system CBL-B (residues 36-427) (Homo sapiens)) for C[C@H](CO)c1nc(C(F)(F)F)cc2c(-c3cccc([C@H](c4nncn4C)C4CCC4)c3)n[nH]c12 (single isomer, unassigned) 11

Enter Ki (test system CBL-B (residues 36-427) (Homo sapiens)) for C[C@H](c1nc(C(F)(F)F)cc2c(-c3cccc(C4(Cc5nncn5C)COC4)c3)n[nH]c12)N1CCNC(=O)C1 (single isomer, unassigned) 31.9

Enter Ki (test system CBL-B (residues 36-427) (Homo sapiens)) for "CCNCc1nc(C(F)(F)F)cc2c(-c3cccc(C4(Cc5nncn5C)COC4)c3)n[nH]c12" 43.6

Enter Ki (test system CBL-B (residues 36-427) (Homo sapiens)) for CC(NC(=O)CO)c1nc(C(F)(F)F)cc2c(-c3cccc([C@H](c4nncn4C)C4CCC4)c3)n[nH]c12 (single isomer, unassigned) [Example I2] 7.8

Enter Ki (test system CBL-B (residues 36-427) (Homo sapiens)) for "Cn1cnnc1CC1(c2cccc(-c3n[nH]c4cnc(OC(F)F)cc34)c2)COC1" 57.8

Enter Ki (test system CBL-B (residues 36-427) (Homo sapiens)) for C[C@H](CO)N[C@@H](C)c1nc(C(F)(F)F)cc2c(-c3cccc([C@H](c4nncn4C)C4CCC4)c3)n[nH]c12 (single isomer, unassigned) 6.7

---

- TARGET_UNDER_TEST: CBL-B (residues 36-427) (Homo sapiens)
- Construct: Purified CBL-B (residues 36-427) and C-CBL (residues 46-435) proteins from baculovirus-infected insect cells; made in house; host or cells: baculovirus-infected insect cells
- ASSAY_PROCEDURE: Ligand Displacement Assay (LDA), HTRF competitive binding against BODIPY-labeled fluorescent tracer, CBL-B
- CONDITION_LABEL: geometric mean of the number of tests, read-out: CBL-B Ki (nM) GMean
QUANTITY_MEASURED: log10 of Ki (log10 of the value in nM)
Response schema: value (number) is log10 of Ki in units of nM.

Let me know recorded log10 of Ki for CN[C@@H](C)c1nc(C(F)(F)F)cc2c(-c3cccc(C4(Cc5nncn5C)COC4)c3)n[nH]c12 (single isomer, unassigned) , thanks. 1.35

Let me know recorded log10 of Ki for C[C@H](N[C@H]1C[C@@H](F)C1)c1nc(C(F)(F)F)cc2c(-c3cccc([C@H](c4nncn4C)C4CCC4)c3)n[nH]c12 (single isomer, unassigned) , thanks. 0.67

Let me know recorded log10 of Ki for "Cn1cnnc1CC1(c2cccc(-c3n[nH]c4c(CN[C@@H]5CCOC5)nc(C(F)(F)F)cc34)c2)COC1" , thanks. 1.66

Let me know recorded log10 of Ki for C[C@H](N[C@H]1CCC[C@@H]1O)c1nc(C(F)(F)F)cc2c(-c3cccc([C@H](c4nncn4C)C4CCC4)c3)n[nH]c12 (single isomer, unassigned) , thanks. -0.15

Let me know recorded log10 of Ki for C[C@@H](c1nc(C(F)(F)F)cc2c(-c3cccc(C4(Cc5nncn5C)COC4)c3)n[nH]c12)N1CCC1 (single isomer, unassigned) , thanks. 1.27

Let me know recorded log10 of Ki for C[C@H](N[C@H]1C[C@H](O)C1)c1nc(C(F)(F)F)cc2c(-c3cccc([C@H](c4nncn4C)C4CCC4)c3)n[nH]c12 (single isomer, unassigned) , thanks. 1.10

Let me know recorded log10 of Ki for CC(NCC(C)(C)O)c1nc(C(F)(F)F)cc2c(-c3cccc([C@H](c4nncn4C)C4CCC4)c3)n[nH]c12 (single isomer, unassigned) [Example C45] , thanks. 0.40

Let me know recorded log10 of Ki for CC(NCCO)c1nc(C(F)(F)F)cc2c(-c3cccc([C@H](c4nncn4C)C4CCCCC4)c3)n[nH]c12 (single isomer, unassigned) [Example C40] , thanks. 0.85

Let me know recorded log10 of Ki for Cn1cnnc1[C@@H](c1cccc(-c2n[nH]c3c(C4CCCCN4)nc(C(F)(F)F)cc23)c1)C1CCC1 (single isomer, unassigned) [Example L1] , thanks. 1.87

Let me know recorded log10 of Ki for CC(CN)c1nc(C(F)(F)F)cc2c(-c3cccc(C4(Cc5nncn5C)COC4)c3)n[nH]c12 (single isomer, unassigned) [Example K7] , thanks. 1.42

Let me know recorded log10 of Ki for "CN1CC[C@@H](N(C)c2nc(C(F)(F)F)cc3c(-c4cccc([C@H](c5nncn5C)C5CCC5)c4)n[nH]c23)C1" , thanks. 1.62
